details: 303.15 K; 101 kPa; Liquid; Sing-around technique in a fixed-path interferometer
Please go through the items and note down their speed of sound.
Write the value in m/s as a bare number.

Query: Can you look up the measured speed of sound of OCCN(CCO)CCO for me?
Response: 1600.5

Query: # lookup: speed of sound of CC(C)(N)CO
Response: 1461.2

Query: Give its speed of sound value. Item: CN(CCO)CCO
Response: 1554.8

Query: Quick one: speed of sound for NCCO ?
Response: 1703.1

###

conditions: 303.15 K; 101 kPa; Liquid; Vibrating tube method
metric-name: mass density (kg/m3)
Report the value in kg/m3 with no unit label.

Query: Requested field: mass density. Item: CC(C)(N)CO [2-amino-2-methylpropan-1-ol]
Response: 928.395

Query: Given the entry NCCO [2-aminoethan-1-ol] , report its measured mass density.
Response: 1008

Query: Using the record for OCCN(CCO)CCO [triethanolamine] , report its mass density.
Response: 1118.06

Query: Param item = CN(CCO)CCO [N-methyldiethanolamine] ; retrieve measured mass density.
Response: 1034.36

Measured values drawn from the NIST ThermoML archive (doi:10.1021/je900437b) for this set.
